Can you tell me apparent KD of MS2 coat protein for the items I'm about to list?
- System: MS2 coat protein
- assayOverview: apparent KD of MS2 coat protein; designed switch direction (-1 OFF switch, 1 ON switch): 1; higher = weaker reporter binding
- recordedConditions: input ligand: microRNA oligo, concentration not stated
Kindly provide the numeric value in nM only, without the unit symbol.

Q: Any idea what apparent KD of MS2 coat protein was measured for GCGAGGAUAUGGAGAGGAUCACCCUCUAGAAGGCGCGAAGGCGAGGAUAUGGAGAGGAUCACCCUCUAGAAGGCGCACUUCUCU [pwkr ssNG3 DX 2xF5 +2xFMN.5] (Eterna round: R96, puzzle: Same State NG 3) ?
Ans: 162

Q: Any idea what apparent KD of MS2 coat protein was measured for GCCGCGUUUCGCGCCUACAUGAGGAUCACCCAUGUAUGUGGGCAGGAUAUCGUUUGCUUUGCAAACGAGAAGGGCUGUUGUGGC [salish99_SSNG3_R04_010] (Eterna round: R96, puzzle: Same State NG 3) ?
Ans: 21.2

Q: Any idea what apparent KD of MS2 coat protein was measured for UGAAUGGUGAUAGGAUAUACAUGAGGAAUCCUCGUAGAAGGAUCACGACAUGAGGAUCACCCAUGUAGCCGUCCGUAGACGGCU [salish99_SSNG1_r04_003] (Eterna round: R96, puzzle: Same State NG 1) ?
Ans: 75.9

Q: Any idea what apparent KD of MS2 coat protein was measured for GUACAGAUCAGAGGAUAUCACGUCGAUUAGACGUGAGAAGGCUGAUCACACAUGAAUAUUAGUACAUGAGGAUCACCCAUGUAC [SSNG1/15-A2] (Eterna round: R96, puzzle: Same State NG 1) ?
Ans: 12.5

====

Can you tell me apparent KD of K4 kissing-loop reporter for the items I'm about to list?
- System: K4 kissing-loop RNA reporter;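 also: bound reporter read as fluorescence of individual clusters on recovered sequencing chips by microscopy, with normalized cluster intensities fitted with a binding model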
- assayOverview: apparent KD of K4 kissing-loop reporter; higher = weaker reporter binding
- recordedConditions: Eterna round: R107; input ligand: arginine 13.2 mM
Kindly provide the numeric value in nM only, without the unit symbol.

Q: Any idea what apparent KD of K4 kissing-loop reporter was measured for AGAAGGAGACUUGCAACGACUCCUUCAGACUAGGAUAUCAGGAAACUGAGAAGGAGUCUACUUGCAGUGAUGUUGCAAGAAUAAU [[F]''-[K]'-[F]'-[F1]-[F2]-[K1]-[K2]_Design3] ?
Ans: 147

Q: Any idea what apparent KD of K4 kissing-loop reporter was measured for GAUUGAGUGAUGUUCAAUUAGUAUCUAGAUACCAGAAUGUCUACCUUCCCUUGGCAGCUACUGACGGUGAUCAUUUCGCGCGCAG [theeternabot_sameState_KL_Theo_A_19] ?
Ans: 222

Q: Any idea what apparent KD of K4 kissing-loop reporter was measured for GUCUCGAGUGAUGUUCGGGUCGUUUGGGAAGGAGCGCCCGGAAGGGCAGGUAGGUCGCCCGGACCGCGCGGGCAACCGCGCGGCC [#2 Same State - Arginine A Attempt #12 (HarryS)] ?
Ans: 162

Q: Any idea what apparent KD of K4 kissing-loop reporter was measured for AAUCAAUACAGAAGGAGCGUGACAGUUGCGAGUGUAAUUUUAGCUAGUGAUGUUAGCAUUUCACAGGUAGGUCGCUGUACAUUUA [#05 K4 Arginine B Same State] ?
Ans: 134

Q: Any idea what apparent KD of K4 kissing-loop reporter was measured for AGCUGCCGAAUAGAUACCAGUGUCUUUAGUGAUGUUUCAGAGCUGGCACGAUCAGAAGGUCACCCUUGGCAGCUAGUGCCAGCGU [theeternabot_exclusion_KL_Theo_B_39] ?
Ans: 145
